# IC50 per entry
# TESTED SYSTEM: intracellular GCN2 (phosphorylation of the GCN2 substrate eIF2α) (Homo sapiens)
# Sequence (Q9P2K8 whole entry): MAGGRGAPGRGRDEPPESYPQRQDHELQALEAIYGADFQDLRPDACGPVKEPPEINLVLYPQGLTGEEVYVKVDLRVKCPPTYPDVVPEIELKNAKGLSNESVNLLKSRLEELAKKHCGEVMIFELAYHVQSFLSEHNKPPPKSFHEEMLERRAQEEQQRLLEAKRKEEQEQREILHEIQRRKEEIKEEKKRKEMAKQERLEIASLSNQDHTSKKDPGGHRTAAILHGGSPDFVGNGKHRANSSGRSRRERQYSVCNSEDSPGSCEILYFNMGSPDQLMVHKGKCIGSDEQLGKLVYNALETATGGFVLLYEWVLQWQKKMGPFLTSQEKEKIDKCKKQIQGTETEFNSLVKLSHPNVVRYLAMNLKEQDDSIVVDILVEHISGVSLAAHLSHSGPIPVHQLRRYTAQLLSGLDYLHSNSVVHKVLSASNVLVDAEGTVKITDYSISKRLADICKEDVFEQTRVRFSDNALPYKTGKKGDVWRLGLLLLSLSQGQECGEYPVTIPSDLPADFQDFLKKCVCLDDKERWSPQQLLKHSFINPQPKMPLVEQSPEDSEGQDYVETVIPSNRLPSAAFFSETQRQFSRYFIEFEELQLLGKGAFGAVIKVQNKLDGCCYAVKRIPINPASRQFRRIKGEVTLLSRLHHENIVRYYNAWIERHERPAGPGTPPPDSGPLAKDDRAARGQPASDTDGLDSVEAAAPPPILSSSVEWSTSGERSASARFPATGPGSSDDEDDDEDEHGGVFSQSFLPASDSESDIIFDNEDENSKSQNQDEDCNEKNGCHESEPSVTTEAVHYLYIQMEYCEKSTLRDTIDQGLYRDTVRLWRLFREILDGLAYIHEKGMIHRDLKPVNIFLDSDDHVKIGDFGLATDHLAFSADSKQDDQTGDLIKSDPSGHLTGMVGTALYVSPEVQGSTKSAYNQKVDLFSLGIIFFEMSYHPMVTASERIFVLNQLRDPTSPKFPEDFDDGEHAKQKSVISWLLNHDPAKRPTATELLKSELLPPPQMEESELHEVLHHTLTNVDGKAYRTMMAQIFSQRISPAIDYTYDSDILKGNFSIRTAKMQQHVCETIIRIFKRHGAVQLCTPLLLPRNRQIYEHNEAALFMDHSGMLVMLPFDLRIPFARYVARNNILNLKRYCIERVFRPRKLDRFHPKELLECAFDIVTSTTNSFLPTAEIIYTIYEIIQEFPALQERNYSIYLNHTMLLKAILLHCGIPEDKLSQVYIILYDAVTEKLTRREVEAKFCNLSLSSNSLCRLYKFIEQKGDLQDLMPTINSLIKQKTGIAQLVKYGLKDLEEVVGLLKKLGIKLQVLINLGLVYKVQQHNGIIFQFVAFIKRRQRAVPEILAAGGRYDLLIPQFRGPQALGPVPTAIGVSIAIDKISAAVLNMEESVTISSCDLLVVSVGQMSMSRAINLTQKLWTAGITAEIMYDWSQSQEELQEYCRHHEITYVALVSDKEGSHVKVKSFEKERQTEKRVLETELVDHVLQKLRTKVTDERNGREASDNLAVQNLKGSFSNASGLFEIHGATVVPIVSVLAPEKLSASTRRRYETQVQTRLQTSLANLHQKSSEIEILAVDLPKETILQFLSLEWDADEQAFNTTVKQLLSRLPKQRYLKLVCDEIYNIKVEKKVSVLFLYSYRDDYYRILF
# ASSAY PROCEDURE: GCN2 cellular inhibition assay (AlphaScreen SureFire P-eIF2α Ser51, borrelidin-treated U2OS cells)
# Type: cell-based
# CONDITIONS: compounds of Formula II; biomarker assay, phosphorylated eIF2α Ser51 in borrelidin-treated U2OS cells
MEASURED QUANTITY: IC50

molecule="FC(F)c1ccc2ncc(-c3cc(N4CCOC(c5cn[nH]c5)C4)ncn3)n2n1 (stereo not shown)" result="0.5 to 5 µM"
molecule="CCC1C(CNS(C)(=O)=O)CCCN1c1cc(-c2cnc3ccc(C(F)F)nn23)ncn1 (single isomer, unassigned) [II-416]" result="< 0.5 µM"
molecule="CC1C(CNS(C)(=O)=O)NCCN1c1cc(-c2cnc3ccc(C(F)F)nn23)ncn1 (stereo not shown)" result="< 0.5 µM"
molecule="CC(NS(C)(=O)=O)C1CCCN(c2cc(-c3cnc4ccc(C(F)F)nn34)ccn2)C1 (stereo not shown) [II-134]" result="0.5 to 5 µM"
molecule=C[C@@H]1C[C@H](NS(C)(=O)=O)CN(c2cc(-c3cnc4ccc(C(F)F)nn34)ncn2)C1 result="< 0.5 µM"
molecule="CC(NS(C)(=O)=O)C1CN(c2cc(-c3cnc4ccc(C(F)F)nn34)ccn2)CCO1 (stereo not shown)" result="0.5 to 5 µM"
molecule=Cc1ncc(-c2cnc3ccc(C(F)F)nn23)cc1N1CCC12CCN(S(C)(=O)=O)CC2 result="0.5 to 5 µM"
molecule=OC[C@H]1CCCN(c2cc(-c3cnc4ccc(C(F)F)nn34)ncn2)C1 result="0.5 to 5 µM"
molecule="CS(=O)(=O)CCC1CCCN(c2cc(-c3cnc4ccc(C(F)F)nn34)ccn2)C1 (stereo not shown)" result="0.5 to 5 µM"
molecule="CS(=O)(=O)NCC1CCCN(c2cc(-c3cnc4ccc(C(F)F)nn34)cc(OC3CNC3)n2)C1 (stereo not shown)" result="0.5 to 5 µM"
molecule="CS(=O)(=O)NCCC1CCN(c2cc(-c3cnc4ccc(C(F)F)nn34)ncn2)C1 (stereo not shown)" result="0.5 to 5 µM"
molecule="CC1C(NS(C)(=O)=O)CCCN1c1cc(-c2cnc3ccc(C(F)F)nn23)ncn1 (single isomer, unassigned) [II-377]" result="< 0.5 µM"
molecule="CS(=O)(=O)NCC1CN(c2cc(-c3cnc4ccc(C(F)F)nn34)ccn2)CCN1C1COC1 (stereo not shown)" result="> 5 µM"
molecule="CS(=O)(=O)NCC1CCN(c2cc(-c3cnc4ccc(C(F)F)nn34)ccn2)C1 (stereo not shown)" result="0.5 to 5 µM"
molecule="CS(=O)(=O)NCC1CN(c2cc(-c3cnc4ccc(C(F)F)nn34)ncn2)CC(C2CC2)O1 (stereo not shown) [II-440]" result="0.5 to 5 µM"
molecule=O=S(=O)(N[C@H]1CCCN(c2cc(-c3cnc4ccc(C(F)F)nn34)ncn2)C1)C1CC1 result="> 5 µM"
molecule="CC1CC(P(C)(C)=O)CN(c2cc(-c3cnc4ccc(C(F)F)nn34)ncn2)C1 (stereo not shown) [II-710]" result="0.5 to 5 µM"
molecule="NS(=O)(=O)NCC1CCCN(c2cc(-c3cnc4ccc(C(F)F)nn34)ncn2)C1 (stereo not shown) [II-202]" result="< 0.5 µM"
molecule="O=S(=O)(NCC1CCCN(c2cc(-c3cnc4ccc(C(F)F)nn34)ncn2)C1)C(F)(F)F (stereo not shown)" result="0.5 to 5 µM"
molecule="CS(=O)(=O)NOC1CCCN(c2cc(-c3cnc4ccc(C(F)F)nn34)ccn2)C1 (stereo not shown)" result="0.5 to 5 µM"
molecule="O=S(=O)(NCC1CCCN(c2cc(-c3cnc4ccc(C(F)F)nn34)ncn2)C1)C1COC1 (stereo not shown)" result="0.5 to 5 µM"
molecule="CC(NS(C)(=O)=O)C1CN(c2cc(-c3cnc4ccc(C(F)F)nn34)ncn2)CCN1 (stereo not shown)" result="0.5 to 5 µM"
molecule="CC1CN(c2cc(-c3cnc4ccc(C(F)F)nn34)ncn2)CC(CNS(C)(=O)=O)C1=O (stereo not shown) [II-525]" result="< 0.5 µM"
molecule="CS(C)(=O)=NC1CCCN(c2cc(-c3cnc4ccc(C(F)F)nn34)ncn2)C1C(F)F (stereo not shown) [II-700]" result="< 0.5 µM"
molecule="O=C1CCCC2CN(c3cc(-c4cnc5ccc(Cl)nn45)ccn3)CCN12 (stereo not shown)" result="> 5 µM"
